- PROCEDURE_DETAILS: Caco-2 cell monolayer permeability assay
- Assay type: in vitro ADME, human
- RECORDED_CONDITIONS: human; Caco-2, B to A direction
- From the text: In order to test the ability of the payloads and/or conjugates to enter cells, a cell monolayer assay was utilized employing Caco-2 cells (a human epithelial colorectal adenocarcinoma cell line). Experimental Procedure: Caco-2 cells grown in tissue culture flasks are trypsinized, suspended in medium, and the suspensions were applied to wells of a Millipore 96 well Caco-2 plate. The cells are allowed to grow and differentiate for three weeks, feeding at 2-day intervals. […]
OBSERVABLE: Papp B→A (nm/s)
// note: answer is a bare numeric in nm/s

I have this compound here, COc1c(OCCCN2CCNCC2)ccc2c1N=C(NC(=O)c1cnc(N)nc1)N1CCN=C21 [Compound 27A] , and I need its recorded Papp B→A.
0.162
